Tested on: BT-549 breast
Assay: NCI-60 one-dose screen, 48 h
Conditions: 10 µM unless noted
This is part of a sample that, as a whole, favours compounds with a hit. Of some 83,000 tested, about 20% had one in any assay. Calls of active or inactive are those of the source. The calls were made as follows: active = growth percent below 10; inactive = the rest.
One label from this list, please: Y = active, N = inactive

- compound: "Cc1cccc(NC(=O)CSc2nc3ccccc3[nH]2)c1"
  targetOrSystem: "BT-549 breast"
  groupLabel: "N"
- compound: "COc1ccc(/C=N\\NC(=O)c2cc(-c3ccc(Br)cc3)n(-c3ccc(S(N)(=O)=O)cc3)n2)cc1"
  targetOrSystem: "BT-549 breast"
  groupLabel: "N"
- compound: "C=C(C)[C@@H]1CC=C2c3sc(-c4ccc(C)cc4)nc3C[C@@H](C)[C@]2(C)C1"
  targetOrSystem: "BT-549 breast"
  groupLabel: "N"
- compound: "COC(=O)[C@]12CC[C@@H](C)[C@H](C)[C@@H]1C1=CC[C@@H]3[C@@]4(C)C(C=O)=C[C@@](C)(COC(C)=O)[C@@H]4C(=O)C[C@@]3(C)[C@]1(C)CC2"
  targetOrSystem: "BT-549 breast"
  groupLabel: "N"

Inquiry: Recorded test call requested for CC1(C)CC(=O)C2=C(C1)N(c1ccc(OC(F)(F)F)cc1)C(N)=C(C#N)C2c1ccc(Cl)cc1 (stereo not drawn)
Reply text: N

Inquiry: What is the recorded call for this compound in the test? C#CCOc1nc(C)cc(C)c1C#N
Reply text: N

Inquiry: Which outcome was entered for the compound COc1cc(-c2n/c(=C\c3c(O)[nH]c4ccc(Cl)cc34)cc3c2=Nc2ccccc2-3)cc(OC)c1OC in this test?
Reply text: N

====

Attribute: growth
Tested on: PC-3 prostate
Test: NCI-60 one-dose screen, 48 h (100 = growth as untreated, 0 = no growth, -100 = all killed)
Conditions: 10 µM unless noted
Compounds without any hit were thinned out: in the full panel of roughly 83,000, 20% have a hit.
Use % as the unit, but write only the number.

Inquiry: Retrieve growth on PC-3 prostate; query CCSC1=NC2C(N(CC)C(=O)N2CC)N1/N=C/C=C/c1ccccc1[N+](=O)[O-] (stereo not given)
Reply text: 22.9

Inquiry: Lab note: record growth of COc1ccc(C(=O)Nn2c(NCC(=O)N3c4ccccc4Sc4ccccc43)nnc2-c2ccc(O)cc2)cc1 tested on PC-3 prostate.
Reply text: 97.6

====

Tested on: SF-539 CNS
Assay: NCI-60 one-dose screen, 48 h
Details: 10 µM unless noted
This is part of a sample that, as a whole, favours compounds with a hit. Of some 83,000 tested, about 20% had one in any assay. Activity calls are given as the source filed them. The calls were made as follows: active = growth percent below 10; inactive = the rest.
Thanks in advance; please answer with one of these: active, inactive

As a guide, the following entries are already answered.
- compound: "Fc1ccc(CNc2c3ccccc3nc3ccccc23)cc1F"
  groupLabel: "inactive"
- compound: "Cc1cc(N2CCCC2)nc(NCc2cc(Nc3ccnc4cc(Cl)ccc34)ccc2F)n1"
  groupLabel: "active"
- compound: "CCc1ccccc1-n1c(-c2ccc(Cl)cc2)cc(-c2ccc(Cl)cc2)c(C#N)c1=O"
  groupLabel: "inactive"

Inquiry: Tell me the assay call for CS(=O)c1cccc(-c2ccc3nc(N)n(-c4ccc(C(F)(F)F)cc4)c(=O)c3c2)c1 (stereo unspecified) please.
Reply text: inactive

Inquiry: I would be grateful if you could indicate the recorded call for Cn1cc(-c2csc(-c3cccc(F)c3)n2)c2cccnc21 .
Reply text: active

Inquiry: Per the records of this test, what outcome belongs to N#CC1=C(/N=C/c2ccccc2)Oc2c(ccc3ccccc23)C1c1ccccc1 (stereo unspecified) ?
Reply text: active

Inquiry: Outcome logged for Cc1ccc(-n2nc3c(c(C#N)c2=O)CC(c2ccccc2Cl)C([N+](=O)[O-])=C3O)cc1 (stereo unspecified) in this assay:
Reply text: inactive

Inquiry: Hi, sorry to bother you, what did the test record for COc1cc(/C=C/C(=O)c2c(C)nc3ccccc3c2C)ccc1OCCCN1CCN(C(=O)c2ccco2)CC1 ?
Reply text: inactive

Inquiry: For CCOC(=O)c1c(/C=C/C(=O)O)nc2ccccc2c1/C=C/c1ccccc1 , what call appears in the results of this test?
Reply text: inactive

Inquiry: For CCCCCCCC/C=C\CCCCCCCCOc1ccccc1CC(=O)NCC[N+](C)(C)C , what call appears in the results of this test?
Reply text: inactive

Inquiry: What call does the record list for COC(=O)CCC1=C(C)C2=NC1=CC1=NC(=CC3=NC(=Cc4[nH]c(/c(=C(/C)O)c4C)=C2)C(C(C)=O)=C3C)C(C)=C1CCC(=O)OC ?
Reply text: inactive
